Experiment: soluble fraction after stress (log2 fold change); higher = more stays soluble; pooled small domains, quantitative proteomics
Conditions: stress: pH 4
Entries and their soluble fraction (log2)
Form field (numeric): enter value without unit.

Some sequences with known soluble fraction (log2) results, for comparison:
1) HMINLRTALNNAGVMQKELSDILYMTPQDVNRRFSGVTKWKPLEKRAIMQFLEDRGFEYTEEQLF: -0.883
2) HMKAILHQESRSGFANATVIGGLDKFLDTNWNQLSKYIKKIETPYSDRSLEDRKIWISTILGILSTEI: 0.136
3) HMAALKVAVLTVSDTRTQETDTSGAFLEGALREAGHEIADRQIVIDDVYQLRAIVSQWIADPEVEVILT: -1.31

# input for lookup
Looking for the measured soluble fraction (log2) of "HMEEEPALLRDLLAKTLEFGLIPQLSHHPALADRTQQLASAVRAAGSASALRNAAASLKSLWIDVDQ" , can you help?
-0.617

Ref: the domain aggregation screens of Martell et al. (2025)
